Target: T1, human interleukin 12 (p70 heterodimer of p35 and p40) (human, UniProt P29459 23-219; P29460 23-328)
T1 construct: Recombinant human IL-12; also called hIL-12; IL-12
T1 sequence (looked up) 1: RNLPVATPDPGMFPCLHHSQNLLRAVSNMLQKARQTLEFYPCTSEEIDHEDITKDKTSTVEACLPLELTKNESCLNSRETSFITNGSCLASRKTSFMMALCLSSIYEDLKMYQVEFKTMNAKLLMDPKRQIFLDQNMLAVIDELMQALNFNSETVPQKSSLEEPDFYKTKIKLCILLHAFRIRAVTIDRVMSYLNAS
T1 sequence (looked up) 2: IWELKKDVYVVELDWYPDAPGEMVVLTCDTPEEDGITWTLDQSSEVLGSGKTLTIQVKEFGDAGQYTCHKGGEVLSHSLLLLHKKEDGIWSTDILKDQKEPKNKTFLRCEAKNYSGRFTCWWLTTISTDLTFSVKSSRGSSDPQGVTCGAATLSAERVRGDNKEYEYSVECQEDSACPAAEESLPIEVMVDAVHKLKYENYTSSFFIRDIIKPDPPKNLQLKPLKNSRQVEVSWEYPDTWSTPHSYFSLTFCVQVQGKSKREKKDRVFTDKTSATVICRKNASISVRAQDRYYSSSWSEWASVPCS
Assay: SPR (BIAcore), off-rate
Measured Endpoint: koff (s⁻¹)
Answer with a number only, understood to be in s⁻¹.

SEQ ID NO: 491 (Y61, D at L32) (antibody, V domains shown) VH: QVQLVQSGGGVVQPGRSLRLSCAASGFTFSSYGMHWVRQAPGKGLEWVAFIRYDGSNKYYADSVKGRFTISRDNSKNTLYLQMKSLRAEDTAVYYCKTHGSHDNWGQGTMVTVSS VL: SYVLTQPPSVSGTPGQRVTISCSGGRSNIGSNDVKWYQQLPGTAPKLLIYGNDQRPSGVPDRFSGSKSGTSASLAITGVQAEDEADYYCQSYDRGTHPALLFGTGTKVTVLG: 0.000252
SEQ ID NO: 479 (Y61, D at L31) (antibody, V domains shown) VH: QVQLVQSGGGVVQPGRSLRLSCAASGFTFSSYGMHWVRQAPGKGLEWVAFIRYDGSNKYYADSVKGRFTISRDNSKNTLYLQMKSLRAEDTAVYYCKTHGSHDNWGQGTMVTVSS VL: SYVLTQPPSVSGTPGQRVTISCSGGRSNIGSDTVKWYQQLPGTAPKLLIYGNDQRPSGVPDRFSGSKSGTSASLAITGVQAEDEADYYCQSYDRGTHPALLFGTGTKVTVLG: 0.00058
SEQ ID NO: 486 (Y61, Q at L31) (antibody, V domains shown) VH: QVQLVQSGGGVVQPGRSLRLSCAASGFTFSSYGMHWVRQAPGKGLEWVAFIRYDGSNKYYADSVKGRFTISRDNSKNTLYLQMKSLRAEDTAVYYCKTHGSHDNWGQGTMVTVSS VL: SYVLTQPPSVSGTPGQRVTISCSGGRSNIGSQTVKWYQQLPGTAPKLLIYGNDQRPSGVPDRFSGSKSGTSASLAITGVQAEDEADYYCQSYDRGTHPALLFGTGTKVTVLG: 0.000292

// query What does the data say about its koff? Entry: SEQ ID NO: 477 (Y61, T at L30) (antibody, V domains shown) VH: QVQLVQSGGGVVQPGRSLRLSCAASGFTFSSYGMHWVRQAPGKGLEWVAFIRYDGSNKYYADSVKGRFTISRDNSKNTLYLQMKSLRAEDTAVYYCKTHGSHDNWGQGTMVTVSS VL: SYVLTQPPSVSGTPGQRVTISCSGGRSNIGTNTVKWYQQLPGTAPKLLIYGNDQRPSGVPDRFSGSKSGTSASLAITGVQAEDEADYYCQSYDRGTHPALLFGTGTKVTVLG
// result 0.000226

// query Data request, read-out koff, for SEQ ID NO: 501 (Y61, A at L32) (antibody, V domains shown) VH: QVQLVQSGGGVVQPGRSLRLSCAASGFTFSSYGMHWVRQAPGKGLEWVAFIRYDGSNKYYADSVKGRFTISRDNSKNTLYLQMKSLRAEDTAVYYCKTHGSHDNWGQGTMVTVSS VL: SYVLTQPPSVSGTPGQRVTISCSGGRSNIGSNAVKWYQQLPGTAPKLLIYGNDQRPSGVPDRFSGSKSGTSASLAITGVQAEDEADYYCQSYDRGTHPALLFGTGTKVTVLG
// result 0.00191

Values were extracted from patent US20120219562A1.
